tested on: SW480; assay: TCF/Wnt firefly luciferase reporter signal relative to plate median (fraction of plate median); higher = higher Wnt reporter signal; settings: 5 µM; treatment time 24 h; reporter: 7TFP
Param threshold (1) applies to TCF/Wnt firefly luciferase reporter signal; output class 1 when value >= threshold, class 0 when value < threshold.

Take a look at these entries with their results.
INSERT INTO assay_data (compound, classlabel) VALUES
  ('NCC(=O)c1ccccc1', 'class 0'),
  ('CC(=O)O[C@@H]1C[C@@]2(C)[C@H](c3ccoc3)C[C@H]3O[C@]32[C@]2(C)C(=O)C(O)=C3C(C)(C)C(=O)C=C[C@]3(C)[C@@H]12', 'class 0'),
  ('CN(C)C(=O)Oc1cccc([N+](C)(C)C)c1', 'class 1'),
  ('COc1ccc(C(=O)O[C@H]2CC[C@@]3(C)[C@@H]4CC[C@H]5[C@]6(O)C[C@H](O)[C@@]7(O)[C@@H](CN8C[C@@H](C)CC[C@H]8[C@@]7(C)O)[C@]6(O)C[C@@]53O[C@]24O)cc1OC', 'class 1'),
  ('CCC(N)C(O)c1ccc(O)c(O)c1 (stereo not drawn)', 'class 1');

Next up:
Lookup: Identify whether the reported TCF/Wnt firefly luciferase reporter signal of the following compound is 1 or greater: `C=CCN1CC[C@]23c4c5ccc(O)c4O[C@H]2C(=O)CC[C@@]3(O)[C@H]1C5`
Found: class 0

----------
Field: cell viability. Provide a value for each of the molecules that follow.
system: SW480; assay: cell viability (CellTiter-Glo) relative to plate median (fraction of plate median); higher = more viable cells; settings: 5 µM; treatment time 24 h; reporter: 7TFP
Numbers only.

The cases that follow already have their cell viability on record.
INSERT INTO assay_data (molecule, experimentaltarget, measurementkind, recordedmeasurement) VALUES
  ('CC1=CC(=O)c2c(O)cccc2C1=O', 'SW480', 'cell viability', 0.404),
  ('COc1cccc(C=O)c1OC', 'SW480', 'cell viability', 1),
  ('O=C1CCCN1CC#CCN1CCCC1', 'SW480', 'cell viability', 1.05),
  ('Oc1ccc(Cl)cc1', 'SW480', 'cell viability', 0.961),
  ('CN1[C@@H]2CC[C@H]1C[C@@H](OC(c1ccccc1)c1ccccc1N)C2 (stereo partly specified)', 'SW480', 'cell viability', 1.03);

Next molecule, please.
Lookup: Fill in reported cell viability for this entry: `NNCc1ccccc1`
Found: 1.06

----------
tested on: DLD1; assay: TCF/Wnt firefly luciferase reporter signal relative to plate median (fraction of plate median); higher = higher Wnt reporter signal; settings: 5 µM; treatment time 24 h; reporter: 7TFP
Field: TCF/Wnt firefly luciferase reporter signal. Provide a value for each of the compounds that follow.
Answers are plain numbers.

The cases that follow already have their TCF/Wnt firefly luciferase reporter signal on record.
INSERT INTO measurements (compound, recordedmeasurement) VALUES
  ('CNC(=O)ON=C(C)SC', 0.98),
  ('O=C([O-])c1ccccc1-c1c2cc(Br)c(=O)cc-2oc2[c]([Hg+])c([O-])c(Br)cc12.[Na+].[Na+].[OH-]', 1),
  ('N[C@@H](Cc1ccc(N(CCCl)CCCl)cc1)C(=O)O', 0.986),
  ('O=P1(NCCCl)OCCCN1CCCl (stereo not given)', 0.999),
  ('CC(C)=CCCC1(C)C=Cc2c(O)c3c(c(CC=C(C)C)c2O1)OC12C(CC4CC1C(C)(C)OC2(C/C=C(/C)C(=O)O)C4O)C3=O (stereo not given)', 0.975);

For every listed record, write down its TCF/Wnt firefly luciferase reporter signal.
1. CC([C@H](O)c1ccccc1)N(C)C (stereo not given in full)
2. CC1C=CC=CCCC=CC=CC=CC=CC(OC2OC(C)C(O)C(N)C2O)CC2OC(O)(CC(O)C(O)CCC(O)CC(O)CC(O)CC(=O)OC(C)C(C)C1O)CC(O)C2C(=O)O (stereo not given)
3. CN[C@@H](C)[C@@H](O)c1ccccc1
4. O=C(NC(=O)c1c(F)cccc1F)Nc1ccc(Cl)cc1
5. CC(=O)NC1CCSC1=O (stereo not given)
6. C=C[C@@H]1C2=CCOC(=O)C2=CO[C@H]1O[C@@H]1O[C@H](CO)[C@@H](O)[C@H](O)[C@H]1O

Found:
[0.915, 0.874, 0.993, 0.914, 1.02, 0.923]

For every listed record, write down its TCF/Wnt firefly luciferase reporter signal.
1. Nc1ccccc1C(=O)O
2. C=CCc1ccc2c(c1)OCO2
3. CC1(C)C2CC(=O)[C@]3(C)C(CC[C@@]4(C)[C@H](c5ccoc5)OC(=O)C5OC543)[C@@]2(C)[C@@H](O)C[C@H]1O (stereo not given in full)
4. CCn1cc(C(=O)O)c(=O)c2cc3c(cc21)OCO3
5. C=C(C)[C@H]1Cc2c(ccc3c2O[C@@H]2COc4cc(OC)c(OC)cc4[C@@H]2C3=O)O1

Found:
1. 0.89
2. 0.914
3. 1.01
4. 0.893
5. 0.738

The measurements presented in this section are drawn from the supplement of paper PMC6522484.
